target: human GLP-1R (human, UniProt P43220 24-463); assay: cell-based or functional assay
Bridges are numbered along the chain shown (N, C = ends). Where no end group is shown, it is not given here. [ ]: non-standard residue; d: D form. staple K20 = not defined here; staple K6 = not defined here; staple K7 = not defined here; staple K8 = not defined here; Aib = CC(C)(N)C(=O)O
property: EC50 cAMP 0% FBS (nM)
One number for each entry, in nM.

Past entries and their recorded results:
Form field: reported EC50 cAMP 0% FBS of YXEGTFTSDYSIYLDKKAAXEFVKWLLAGGPSSGAPPPS (staple K4 on Lys 17, 24; Aib 2, 20) [Conjugate 140]
0.034

Then what about the binder Y[Aib]EGTFTSDYSIYKDKQAA[Aib]KFVNWLLAGGPSSGAPPPS (linker 14-21 via staple K6; reading uncertain) [Conjugate 151] ?
0.03

Then what about the binder Y[Aib]EGTFTSDYSIYKDKQAA[Aib]KFKNWLKAGGPSSGAPPPS (linker 23-27 via staple K8; reading uncertain) [Conjugate 156] ?
14.6

Then what about the binder YXEGTFTSDYSIYKDKQAAXKFVNWLLAGGPSSGAPPPS (staple K5 on Lys 14, 21; Aib 2, 20) [Conjugate 141] ?
0.022

Then what about the binder Y[Aib]EGTFTSDYSIYLDKKAQ[Aib]AFVKWLIAQGPSSGAPPPS (linker 17-24 via staple K8; reading uncertain) [Conjugate 161] ?
0.4

Then what about the binder Y[Aib]EGTFTSDYSIYKDKQAA[Aib]KFKNWLKAGGPSSGAPPPS (linker 23-27 via staple K20; reading uncertain) [Conjugate 157] ?
16.4

Let us move to another entry and its EC50 cAMP 0% FBS.
Form field: reported EC50 cAMP 0% FBS of Y[Aib]EGTFTSDYSIYLDKKAA[Aib]EFVKWLLAGGPSSGAPPPS (linker 17-24 via staple K7; reading uncertain) [Conjugate 150]
0.06
